The measurements presented in this section are drawn from patent US8785431B2.

# assay info: in vitro
# Assay type: in vitro ADME
# assay conditions: human, plasma
measured parameter: half-life (h)
Reply numerically in h, unit not repeated.

Some solved entries appear below for comparison.
> print(dat)
                                   compound  test.result
1  CCOC(=O)[C@H](CCc1ccccc1)NC1CCCN2CCC[C@@H](C(=O)OC(C)OC(=O)C(C)(C)C)N2C1=O (stereo partly shown)          5.1
2  CCOC(=O)[C@H](CCc1ccccc1)NC1CCCN2CCC[C@@H](C(=O)OC(C)OC(=O)OC3CCCCC3)N2C1=O (stereo partly shown)          3.2
3  CCOC(=O)[C@H](CCc1ccccc1)NC1CCCN2CCC[C@@H](C(=O)OC(C)OC(C)=O)N2C1=O (stereo partly shown)         0.68

Task: Record request: half-life value, item CCOC(=O)[C@H](CCc1ccccc1)NC1CCCN2CCC[C@@H](C(=O)OC(C)OC(=O)OC(C)C)N2C1=O (stereo partly shown)
Result: 1.9

Task: Continue with CCOC(=O)OC(C)OC(=O)[C@@H]1CCCN2CCCC(N[C@@H](CCc3ccccc3)C(=O)OCC)C(=O)N12 (stereo partly shown)
Result: 0.58

Task: Same lookup for "CCOC(=O)[C@H](CCc1ccccc1)N[C@H]1CCCN2CCC[C@@H](C(=O)OCCN3CCOCC3)N2C1=O" , please.
Result: 1.3

Task: Next: CCOC(=O)[C@H](CCc1ccccc1)NC1CCCN2CCC[C@@H](C(=O)OC(C)OC(=O)CN3CCOCC3)N2C1=O (stereo partly shown)
Result: 0.83
